Assay: Quantitative highthroughput screen to assess conditional lethalithy of NOMO1 cells grown in RPMI1640 with untreated serum (RPMI+s) (AID 1963876); further: nearly all actives have a fitted effect of over 35% in size;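 on viability: 100% = DMSO wells and 0% = empty wells without cells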
Conditions: NOMO1 AML cells in RPMI+serum, CellTiter-Glo viability, 48 h; series mostly up to 45.8 µM
Inconclusive results are not listed. Calls of active or inactive are those of the source. The call rests on the fitted dose curve; in most records, active means well fitted cell-killing curve with a large enough effect; inconclusive means small, poorly fitted or top-dose-only effect; inactive means flat fitted curve, though single readings scatter.
// one of Yes = active, No = inactive, no free text

Use the examples below as a reference point.
>>> assigned_class("CC(C)[C@]12O[C@@H]1[C@@H]1O[C@]13[C@]1(O[C@H]1C[C@@H]1C4=C(CC[C@@]13C)C(=O)OC4)[C@H]2O")
"Yes"
>>> assigned_class("C[C@@H]1CC[C@H]2[C@@H](C)C(=O)O[C@@H]3O[C@@]4(C)CC[C@H]1[C@]32OO4")
"No"
>>> assigned_class("C#CC1(O)CCC2C3CCC4=CC(=O)CCC4(C)C3CCC21C (stereo unspecified)")
"No"
>>> assigned_class("O=C(N[C@H]1CN2CCC1CC2)c1ccc(Cl)cc1")
"No"
>>> assigned_class("O=[N+]([O-])c1ncc[nH]1")
"No"

I'd appreciate the recorded outcome for `C[C@]12CCC(=O)C=C1CC[C@@H]1[C@H]3CC[C@](C)(O)[C@@]3(C)CC[C@@H]12` from this test.
No

I'd appreciate the recorded outcome for COCC1(CO)C(=O)C2CCN1CC2 (stereo unspecified) from this test.
Yes

I'd appreciate the recorded outcome for `COC(=O)[C@@H](N)CCCN=C(N)N[N+](=O)[O-]` from this test.
No

I'd appreciate the recorded outcome for `CC(C)c1cccc(C(C)C)c1O` from this test.
No

I'd appreciate the recorded outcome for `CC[C@@]1(O)C(=O)OCc2c1cc1n(c2=O)Cc2cc3ccccc3nc2-1` from this test.
Yes

I'd appreciate the recorded outcome for CNCC(O)c1ccc(O)cc1 (stereo unspecified) from this test.
No

I'd appreciate the recorded outcome for CC(N[C@H]1C[C@H]1c1ccccc1)c1ccc2c(c1)OCCO2 (stereo partly specified) from this test.
No

I'd appreciate the recorded outcome for CCCC(C)(COC(N)=O)COC(=O)NC(C)C (stereo unspecified) from this test.
No

I'd appreciate the recorded outcome for `Oc1ccc2c3c1O[C@H]1c4[nH]c5c(c4C[C@@]4(O)[C@@H](C2)N(CC2CC2)CC[C@]314)C[C@@]1(O)[C@H]2Cc3ccc(O)c4c3[C@@]1(CCN2CC1CC1)[C@H]5O4` from this test.
No

I'd appreciate the recorded outcome for `c1cc2c(cc1[C@H]1OC[C@H]3[C@H]1CO[C@H]3c1ccc3c(c1)OCO3)OCO2` from this test.
No

I'd appreciate the recorded outcome for `Cc1[nH]nc2ccc(-c3cncc(OC[C@@H](N)Cc4c[nH]c5ccccc45)c3)cc12` from this test.
Yes

I'd appreciate the recorded outcome for `Cc1ncc(OC[C@@]2(c3cccc(F)c3)C[C@H]2C(=O)Nc2ccc(F)cn2)c(C)n1` from this test.
No

---

Test: Quantitative highthroughput screen to assess conditional lethalithy of SEM cells grown in RPMI1640 with dialyzed fetal bovine serum (RPMI+ds) (AID 1963884);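 further: 100% = DMSO control wells and 0% = empty wells without cells; nearly all actives have a fitted effect of over 35% in size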
Settings: SEM B-ALL cells, RPMI+dialyzed FBS, CellTiter-Glo viability, 48 h; series mostly up to 45.8 µM
Method: Assay Provider: Jason Cantor Ph.D. Department of Biochemistry University of Wisconsin-Madison, Madison, WI, USA Chemical screening studies have identified drug sensitivities across hundreds of cancer cell lines but most putative therapeutics fail to translate. […] Sets of conditional anticancer compounds spanned phases of clinical development and included non-oncology drugs were assessed. […] 6; Detection; Luminescence, Viewlux PerkinElmer. […]
Results filed as inconclusive are left out. Activity calls are given as the source filed them. Calls come from the whole dose curve; as a rule, active = well fitted cell-killing curve with a large enough effect; inconclusive = small, poorly fitted or top-dose-only effect, or effect the other way; inactive = no such curve, though single readings can be large or run the other way.
// one of active, inactive, no free text

Use the examples below as a reference point.
>>> assigned_class("CCOC(=O)c1c(C(C#N)=CN)c2ccc(Cl)c(Cl)c2n1C")
"inactive"
>>> assigned_class("NCC1(CC(=O)O)CCCCC1")
"inactive"
>>> assigned_class("COc1ccc(C(=O)c2c(C)n(CCN3CCOCC3)c3ccccc23)cc1")
"inactive"

Now look at this one.
I'd appreciate the recorded outcome for `COc1cccc2c1[C@]13CCN(CC4CC4)[C@H](C2)[C@]1(OC)CCC(=O)C3` from this test.
inactive

---

activity (max response) values by entry
Assay: Cellular viability qHTS for adrenocortical cancer (ACC) cell line SW-13 (AID 1963989);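 further: cells grown in serum-free medium with ITS supplement; on the % scale 0 is the no-effect control and ±100 the full control effect; nearly all actives have a fitted effect of over 65% in size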
Details: SW-13 ACC cells viability, CellTiter-Glo, 48 h; active compounds read low
Inconclusive results are not listed. The source made the active and inactive calls. The call rests on the fitted dose curve; in most records, active means well fitted cell-killing curve with a large enough effect; inconclusive means small, poorly fitted or top-dose-only effect; inactive means flat fitted curve, though single readings scatter.

>>> endpoint_value("CC1=C(C(=O)O)N2C(=O)[C@@H](N)[C@H]2SC1")
"6.68% (inactive)"

Return activity (max response) for the following molecule: `NC(=O)c1cc([N+](=O)[O-])cc([N+](=O)[O-])c1`
-5.23% (inactive)

Return activity (max response) for the following molecule: CC(C)=CC1C(C(=O)OCc2cccc(Oc3ccccc3)c2)C1(C)C (stereo unspecified)
3.55% (inactive)

---

Test: Cellular viability qHTS for adrenocortical cancer (ACC) cell line NCI-H295R (AID 1963990); further: nearly all actives have a fitted effect of over 60% in size
Settings: CellTiter-Glo ATP luminescence, 48 h; series mostly up to 46.1 µM
Results filed as inconclusive are left out. The source made the active and inactive calls. The call rests on the fitted dose curve; in most records, active means well fitted cell-killing curve with a large enough effect; inconclusive means small, poorly fitted or top-dose-only effect; inactive means flat fitted curve, though single readings scatter.
// one of active, inactive, no free text

Use the examples below as a reference point.
>>> assigned_class("C=CCN1CC[C@]23c4c5ccc(O)c4O[C@H]2C(=O)CC[C@@]3(O)[C@H]1C5")
"inactive"
>>> assigned_class("Cc1[nH]nc2ccc(-c3cncc(OC[C@@H](N)Cc4c[nH]c5ccccc45)c3)cc12")
"active"
>>> assigned_class("CC(C)(C)c1cc(C=C(C#N)C#N)cc(Br)c1O")
"inactive"
>>> assigned_class("CC(=O)[C@H]1CC[C@H]2[C@@H]3CC[C@H]4C[C@H](O)CC[C@]4(C)[C@H]3C(=O)C[C@]12C")
"inactive"
>>> assigned_class("COc1ccc2[nH]cc(CCN(C(C)C)C(C)C)c2c1")
"inactive"
>>> assigned_class("O=[N+]([O-])O[C@H]1CO[C@H]2[C@@H]1OC[C@H]2O[N+](=O)[O-]")
"inactive"

I'd appreciate the recorded outcome for `CCCCC/C=C\C/C=C\C/C=C\C/C=C\CCCC(=O)NCC(=O)O` from this test.
inactive

I'd appreciate the recorded outcome for `Cn1c(COP(=O)(NCCBr)NCCBr)cnc1[N+](=O)[O-]` from this test.
inactive

I'd appreciate the recorded outcome for `CN1C[C@@H](NS(=O)(=O)N(C)C)C[C@@H]2c3cccc4c3c(cn4C)C[C@H]21` from this test.
inactive

---

Assay: Quantitative highthroughput screen to assess conditional lethalithy of P12 Ichikawa cells grown in RPMI1640 with untreated serum (RPMI+s) (AID 1963881); further: nearly all actives have a fitted effect of over 35% in size;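 on viability: 100% = DMSO wells and 0% = empty wells without cells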
Settings: ATP luminescence, 48 h; viability; series mostly up to 45.8 µM
Records with an inconclusive call do not appear. The source made the active and inactive calls. The call rests on the fitted dose curve; in most records, active means well fitted cell-killing curve with a large enough effect; inconclusive means small, poorly fitted or top-dose-only effect; inactive means flat fitted curve, though single readings scatter.
// one of 1 (yes) (active), 0 (no) (inactive), no free text

Use the examples below as a reference point.
>>> assigned_class("CC(=O)O[C@@]12CO[C@H]1C[C@H](O)[C@@]1(C)C(=O)[C@H](O)C3=C(C)[C@@H](O)C[C@@](O)([C@@H](OC(=O)c4ccccc4)[C@@H]21)C3(C)C")
"1 (yes)"
>>> assigned_class("COC(=O)[C@@H](N)CCCN=C(N)N[N+](=O)[O-]")
"0 (no)"

I'd appreciate the recorded outcome for `CC1=C(O)C(=O)C=C2C1=CC=C1[C@@]2(C)CC[C@@]2(C)[C@@H]3C[C@](C)(C(=O)O)CC[C@]3(C)CC[C@]12C` from this test.
1 (yes)

I'd appreciate the recorded outcome for `O=C1CCC[C@@H]2[C@H]3CCCN4CCC[C@@H](CN12)[C@@H]34` from this test.
0 (no)

I'd appreciate the recorded outcome for `O=c1[nH]c2ccccc2n1C1CCN(Cc2ccc(-c3[nH]c4cc5ncnc5cc4nc3-c3ccccc3)cc2)CC1` from this test.
0 (no)

I'd appreciate the recorded outcome for `CNC(=O)c1ccc(N2C(=S)N(c3ccc(C#N)c(C(F)(F)F)c3)C(=O)C23CCC3)cc1F` from this test.
0 (no)

I'd appreciate the recorded outcome for `O=C(Oc1ccc([N+](=O)[O-])cc1)N1CCC(C(O)(c2ccc3c(c2)OCO3)c2ccc3c(c2)OCO3)CC1` from this test.
0 (no)

I'd appreciate the recorded outcome for `C#C[C@]1(O)C=C[C@@H]2[C@@H]3CCC4=CC(=O)CC[C@@H]4[C@H]3CC[C@@]21CC` from this test.
0 (no)

---

Test: Viability qHTS for spleen associated tyrosine kinase inhibitor (SYKi) naive MV4-11 cells (AID 1963823); further: nearly all actives have a fitted effect of over 40% in size; further: potency means the concentration at half of the fitted maximal effect
Details: MV4-11 AML viability, CellTiter-Glo luminescence, 72 h; series mostly up to 45 µM
Records with an inconclusive call do not appear. Calls of active or inactive are those of the source. Calls come from the whole dose curve; as a rule, active = well fitted cell-killing curve with a large enough effect; inconclusive = small, poorly fitted or top-dose-only effect, or effect the other way; inactive = no such curve, though single readings can be large or run the other way.
Quantity name: Potency

>>> endpoint_value("CC[C@@]1(O)C(=O)OCc2c1cc1n(c2=O)Cc2cc3c(OC)cccc3nc2-1")
"14.3 nM (active)"
>>> endpoint_value("COC1CC(O[C@H]2CC[C@]3(C)C4CC[C@]5(C)[C@@H](C6=CC(=O)OC6)[C@@H](OC(C)=O)C[C@]5(O)C4CC[C@@H]3C2)OC(C)C1O[C@@H]1O[C@H](CO)[C@@H](O)[C@H](O)[C@H]1O (some centres undefined)")
"306 nM (active)"
>>> endpoint_value("COC1C=CC23c4cc5c(cc4COC2(O)CN(C)C3C1)OCO5 (centres undefined)")
"inactive"
>>> endpoint_value("CN1C(=O)NC(=O)C(C)(C2=CCCCC2)C1=O (centres undefined)")
"inactive"

Return Potency for the following compound: `c1ccc2c(c1)sc1ccccc12`
inactive

Return Potency for the following compound: `CC1=C[C@H]2O[C@@H]3[C@H](O)[C@@H](O)[C@](C)([C@@]2(CO)C[C@@H]1O)[C@]31CO1`
820 nM (active)

Return Potency for the following compound: CC(C(=O)c1ccccc1)N(C)C (centres undefined)
inactive

Return Potency for the following compound: `CN[C@H]1[C@H](O)[C@H](O[C@@H]2[C@@H](O)[C@H](O[C@H]3O[C@H]([C@H](C)O)[C@@H](O)[C@H](O)[C@H]3N)[C@@H](N)C[C@H]2N)OC[C@@]1(C)O`
inactive

Return Potency for the following compound: `C/C1=C/C[C@@H](/C(C)=C/c2csc(C)n2)OC(=O)C[C@H](O)C(C)(C)C(=O)[C@H](C)[C@@H](O)[C@@H](C)CCC1`
33.2 nM (active)
